# systemName: KRAS G12C (Homo sapiens (Human), UniProt P01116, C118A/G12C)
# Sequence (P01116 other isoform, or with tags, fused parts or gaps G12C/C118A): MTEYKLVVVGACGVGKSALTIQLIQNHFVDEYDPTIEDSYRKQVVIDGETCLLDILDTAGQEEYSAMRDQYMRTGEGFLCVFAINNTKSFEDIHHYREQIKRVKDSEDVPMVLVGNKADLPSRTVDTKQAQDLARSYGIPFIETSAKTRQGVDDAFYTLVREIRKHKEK
# protocolSummary: 2 h coupled exchange assay
# Assay type: biochemical
# cond: Avg 2 h Coupled exchange IC50, 2 h compound pre-incubation, SOS-mediated nucleotide exchange
pIC50: −log10 of the molar value.
measuredParameter: pIC50

(a) C=CC(=O)N1CC2(CCN(c3nc4c(c(-c5c(C)ccc6[nH]ncc56)c3C#N)COC3(CCC3)C4)C2)C1
(b) C=CC(=O)N1CC2(CCN(c3nc4c(c(-c5c(C)ccc6cnn(C)c56)c3C#N)CCC(C)(C)C4)C2)C1 (single isomer, unassigned) [Example 13-145]
(c) C=CC(=O)N1CC2(C1)CN(c1nc3c(F)cccc3c(-c3c(C)ccc4[nH]ncc34)c1C#N)CC2F (centres unmarked)
(d) C=CC(=O)N1CC2(CCN(c3nc4c(c(-c5c(C)ccc6[nH]ncc56)c3C#N)COC4(C)C)C2)C1
Data request: Sort the entries above numerically by pIC50, high end first. Could you list the labels in the order requested?
Data returned: b, a, d, c
